System: HOP-92 NSCLC
assay_protocol: NCI tumour cell line growth inhibition, 48 h; in the data active = GI50 below about 0.43 µM; inactive = the rest
Outcome (select one): class 1 for active, class 0 for inactive

| compound | label_class |
| --- | --- |
| Nc1nn2cc(F)cnc2c1C(=O)Nc1cncc(F)c1N1CCC(C(=O)N2CCN(C3COC3)CC2)CC1 | class 0 |
| Cc1cc(Cl)cc(OCCn2cc(F)cn2)c1-c1nc(N)nc2c1CN(C(=O)NCC(C)(F)F)C2 | class 1 |

Hi, sorry to bother you, what did the test record for COc1cc(OCc2cccc(-c3ccc(C(O)c4nccs4)cc3)c2C)cc(OC)c1C=O (stereo not given) ? class 0

Entry to check: COc1ccc(Sc2[nH]c(C(C)=O)c3ccccc23)cc1 class 0

Entry to check: C/C=C(\C)C(=O)O[C@H]1C=CC(=O)O[C@H]1CCC(=O)[C@H](C)O class 0

====

System: U251 CNS
assay_protocol: NCI tumour cell line growth inhibition, 48 h; in the data active = GI50 below about 0.43 µM; inactive = the rest
Outcome (select one): T (active), F (inactive)

Example cases with answers are listed next.
| compound | label_class |
| --- | --- |
| COc1cc(-c2oc(=O)ccc2C#Cc2ccccn2)cc(OC)c1OC | F |
| CC(=O)OC1COC(Oc2c(C)c3c4c(c2O)[C@@H](C)CC[C@@H]4[C@@H](C)C[C@H]3C=C(C)C)C(O)C1OC(C)=O (some centres undefined) | F |
| CSC1=Nc2c(c(C)c(C)n2COC(CO)CO)C2=NC(=O)C(C)N12 (centres undefined) | F |
| Cn1cc(C2=C(c3ccc(N)cc3)C(=O)NC2=O)c2ccccc21 | F |
| Nc1nn2cc(F)cnc2c1C(=O)Nc1cncc(F)c1N1CCC(C(=O)N2CCN(C3COC3)CC2)CC1 | F |

Hi, sorry to bother you, what did the test record for CC/C=C\C[C@H](O)C/C=C1/C(=O)C(Cl)=C[C@@H]1C/C=C\CCCC(=O)OC ? T

Entry to check: COc1ccccc1/C=N\N/C(N)=N\N=C\c1ccccc1OC F

Entry to check: NC(=S)N/N=C/C(=O)O F

Entry to check: COc1ccc(/C=C\[N+](=O)[O-])cc1OC F

====

Tested on: DLD-1 colon
assay_protocol: NCI tumour cell line growth inhibition, 48 h
Quick reference: TGI of the listed items.

| compound | value |
| --- | --- |
| CC12C/C(=C\c3ccccc3)C(=O)C3C1CCCC32 | > 100 µM |
| CCCC(=O)OCC1OC(n2ccc(N)nc2=O)C(OC(=O)CCC)C1OC(=O)CCC (stereo not drawn) | > 100 µM |

Then this compound:
Look up TGI for this compound: CCC(=O)CC(=O)CCC(=O)Nc1cc(C)ccc1C > 100 µM

====

Test system: SK-OV-3 ovarian
assay_protocol: NCI tumour cell line growth inhibition, 48 h; in the data active = GI50 below about 0.43 µM; inactive = the rest
Outcome (select one): active, inactive

Example cases with answers are listed next.
| compound | system | label_class |
| --- | --- | --- |
| COC(=O)C[C@](O)(CCCC(C)(C)O)C(=O)O[C@@H]1C(OC)=C[C@]23CCCN2CCc2cc4c(cc2[C@H]13)OCO4 | SK-OV-3 ovarian | active |
| Cn1cc(C2=C(c3ccc(N)cc3)C(=O)NC2=O)c2ccccc21 | SK-OV-3 ovarian | inactive |
| COc1cc(OCc2cccc(-c3ccc(C(O)c4nccs4)cc3)c2C)cc(OC)c1C=O (stereo not given) | SK-OV-3 ovarian | inactive |
| C/C=C(\C)C(=O)O[C@H]1C=CC(=O)O[C@H]1CCC(=O)[C@H](C)O | SK-OV-3 ovarian | inactive |
| CC(=O)Nc1ccc(S(=O)(=O)N2C(=O)CCC2C(=O)Nc2ccc(Br)cc2)cc1 (stereo not given) | SK-OV-3 ovarian | inactive |
| S=C(Nc1ccc(Cl)cc1)Nc1ccc(-c2nc3ccccc3s2)cc1 | SK-OV-3 ovarian | inactive |
| CC/C=C\C[C@H](O)C/C=C1/C(=O)C(Cl)=C[C@@H]1C/C=C\CCCC(=O)OC | SK-OV-3 ovarian | inactive |
| NC(=S)N/N=C/C(=O)O | SK-OV-3 ovarian | inactive |
| Cc1cc(Cl)cc(OCCn2cc(F)cn2)c1-c1nc(N)nc2c1CN(C(=O)NCC(C)(F)F)C2 | SK-OV-3 ovarian | active |

Kindly consider the entry below.
Hi, sorry to bother you, what did the test record for CC[As](CC)SC[C@H](C)C(=O)N1CCC[C@H]1C(=O)O ? active
